assay-target: human CB2 (Homo sapiens)
Construct: expressed in transfected cells; host or cells: HEK-293T (transient transfection, membrane preparation)
Sequence (P34972 whole entry): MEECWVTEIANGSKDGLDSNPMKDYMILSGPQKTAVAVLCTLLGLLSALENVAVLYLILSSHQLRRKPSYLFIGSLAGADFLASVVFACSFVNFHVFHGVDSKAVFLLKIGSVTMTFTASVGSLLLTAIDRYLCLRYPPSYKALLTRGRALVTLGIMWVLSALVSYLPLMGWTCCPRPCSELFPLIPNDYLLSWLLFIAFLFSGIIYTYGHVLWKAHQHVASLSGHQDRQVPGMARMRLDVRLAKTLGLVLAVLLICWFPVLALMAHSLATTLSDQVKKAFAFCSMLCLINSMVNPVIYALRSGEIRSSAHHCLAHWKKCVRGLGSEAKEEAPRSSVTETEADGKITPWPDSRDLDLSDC
assay-info: CB2 receptor binding assay, block of [3H]-CP 55,940 binding
condition-summary: membranes of HEK-293T cells transfected with human CB2 cDNA; 1.5 nM [3H]-CP 55,940
quantity-name: pKi

structure-notation	pKi
COc1cccc(OC)c1-c1nc2cc(C)ccn2c1Nc1ccc2c(c1)OCCO2	5.9
Cc1cccc2nc(-c3cccc(F)n3)c(Nc3ccc4c(c3)OCCO4)n12	6.7
Cc1cccc(C)c1-c1nc2cnccn2c1Nc1ccc2c(c1)OCCO2	6.7
FCCOc1cccc2nc(-c3c(F)cccc3Cl)c(Nc3ccc4c(c3)OCCO4)n12	7.7
Fc1cccc(F)c1-c1nc2cnccn2c1Nc1ccc2c(c1)OCCO2	6.6
Fc1cc(-c2nc3cnccn3c2Nc2ccc3c(c2)OCCO3)ccn1	5.5
COc1cccc2nc(-c3c(F)cc(OCF)cc3F)c(Nc3ccc4c(c3)OCCO4)n12	8.6
COc1cccc2nc(-c3c(F)ccc(OCF)c3F)c(Nc3ccc4c(c3)OCCO4)n12	9.5
COc1cc(-c2nc3cnccn3c2Nc2ccc3c(c2)OCCO3)ccc1O	6.8
